- subject-of-test: BRM (Homo sapiens, UniProt P51531)
- Construct: In-Cell Western Screen of BRM Degradation in SW1573 Cells; endogenous in cells; host or cells: SW1573
- Sequence (P51531 whole entry): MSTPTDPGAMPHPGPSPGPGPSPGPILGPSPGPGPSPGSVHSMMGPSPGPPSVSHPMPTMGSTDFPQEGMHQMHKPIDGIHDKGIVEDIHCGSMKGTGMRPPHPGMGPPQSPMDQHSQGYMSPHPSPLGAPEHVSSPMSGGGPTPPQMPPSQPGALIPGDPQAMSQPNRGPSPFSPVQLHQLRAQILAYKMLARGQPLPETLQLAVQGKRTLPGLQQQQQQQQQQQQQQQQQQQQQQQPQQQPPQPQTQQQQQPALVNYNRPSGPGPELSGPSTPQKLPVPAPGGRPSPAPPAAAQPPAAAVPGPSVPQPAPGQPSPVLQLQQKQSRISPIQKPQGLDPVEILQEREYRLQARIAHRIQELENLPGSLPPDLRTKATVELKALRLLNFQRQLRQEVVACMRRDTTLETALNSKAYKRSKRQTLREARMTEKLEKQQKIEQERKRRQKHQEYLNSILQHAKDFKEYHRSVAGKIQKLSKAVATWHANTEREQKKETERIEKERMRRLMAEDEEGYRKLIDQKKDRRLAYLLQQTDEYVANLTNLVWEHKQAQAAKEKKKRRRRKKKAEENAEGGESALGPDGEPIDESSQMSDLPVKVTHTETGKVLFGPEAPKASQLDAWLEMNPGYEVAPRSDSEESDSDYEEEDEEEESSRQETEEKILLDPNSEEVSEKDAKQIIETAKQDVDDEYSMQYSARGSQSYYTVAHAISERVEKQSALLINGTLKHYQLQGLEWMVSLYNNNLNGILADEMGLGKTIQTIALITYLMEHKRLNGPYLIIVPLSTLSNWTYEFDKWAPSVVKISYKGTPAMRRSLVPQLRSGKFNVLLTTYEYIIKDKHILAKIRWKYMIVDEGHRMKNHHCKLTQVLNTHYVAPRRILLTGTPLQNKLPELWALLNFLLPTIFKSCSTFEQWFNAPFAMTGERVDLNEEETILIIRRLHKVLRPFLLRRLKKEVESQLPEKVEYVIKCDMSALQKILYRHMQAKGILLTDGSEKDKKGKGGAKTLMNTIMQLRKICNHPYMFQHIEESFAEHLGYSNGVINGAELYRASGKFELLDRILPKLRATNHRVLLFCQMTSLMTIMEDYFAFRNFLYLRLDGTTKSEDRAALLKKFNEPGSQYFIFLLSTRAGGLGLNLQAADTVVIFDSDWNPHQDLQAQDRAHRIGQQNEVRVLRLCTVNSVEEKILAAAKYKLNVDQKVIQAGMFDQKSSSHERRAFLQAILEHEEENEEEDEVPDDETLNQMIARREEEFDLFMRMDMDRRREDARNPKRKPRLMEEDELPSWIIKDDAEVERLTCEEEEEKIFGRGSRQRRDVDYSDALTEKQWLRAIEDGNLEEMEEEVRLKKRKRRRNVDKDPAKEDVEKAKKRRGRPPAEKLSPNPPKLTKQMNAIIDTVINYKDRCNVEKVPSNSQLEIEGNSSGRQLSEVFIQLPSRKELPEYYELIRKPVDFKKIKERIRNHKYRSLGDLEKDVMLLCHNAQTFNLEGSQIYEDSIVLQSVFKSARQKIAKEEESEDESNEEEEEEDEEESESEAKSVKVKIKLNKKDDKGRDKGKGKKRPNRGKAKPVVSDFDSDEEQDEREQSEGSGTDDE
- assay-overview: In-cell Western screen of BRM degradation in SW1573 cells (Dmax and DC50)
- Assay type: cell-based
- condition-set: BRM degradation, SW1573 cells; read-out: DC50
Form field: DC50 (one value per entry).
assay-endpoint: DC50

smiles-input	subject-of-test	assay-endpoint	measured-result
CC(=O)N1CC(NC(=O)[C@@H]2C[C@@H](O)CN2C(=O)[C@H](c2cc(OCCN3CCN(CCOc4cc(N5C6CCC5CN(c5cc(-c7ccccc7O)nnc5N)C6)ccn4)CC3)no2)C(C)C)(c2ccc(-c3scnc3C)cc2)C1	BRM (Homo sapiens, UniProt P51531)	DC50	> 30 nM
Cc1ncsc1-c1ccc([C@H](CN(C)C)NC(=O)[C@@H]2C[C@@H](O)CN2C(=O)[C@@H](c2cc(OCCN3CCN(CCOc4cc(N5C6CCC5CN(c5cc(-c7ccccc7O)nnc5N)C6)ccn4)CC3)no2)C(C)C)cc1	BRM (Homo sapiens, UniProt P51531)	DC50	< 2.5 nM
Cc1ncsc1-c1ccc([C@H](C)NC(=O)[C@@H]2C[C@@H](O)CN2C(=O)[C@@H](c2cc(OCCOCCOCCOCCn3cc(-c4cc(-c5ccccc5O)nnc4N)cn3)no2)C(C)C)cc1	BRM (Homo sapiens, UniProt P51531)	DC50	2.5 to 10 nM

* * *

- subject-of-test: BRM (Homo sapiens, UniProt P51531)
- Construct: In-Cell Western Screen of BRM Degradation in SW1573 Cells; endogenous in cells; host or cells: SW1573
- assay-overview: In-cell Western screen of BRM degradation in SW1573 cells (Dmax and DC50)
- Assay type: cell-based
- condition-set: BRM degradation; read-out: BRM DC50
Form field: DC50 (one value per entry).

smiles-input	DC50
Cc1ncsc1-c1ccc([C@H](CCC#N)NC(=O)[C@@H]2C[C@@H](O)CN2C(=O)[C@@H](c2cc(OCCN3CCC(O[C@H]4C[C@H](Oc5cc(N6C7CCC6CN(c6cc(-c8ccccc8O)nnc6N)C7)ccn5)C4)CC3)no2)C(C)C)cc1	< 2.5 nM
Cc1ncsc1-c1ccc([C@H](C)NC(=O)[C@@H]2C[C@@H](O)CN2C(=O)[C@H](c2cc(OCCC3CCN(CCOc4cc(N5C6CCC5CN(c5cc(-c7ccccc7O)nnc5N)C6)ccn4)CC3)no2)C(C)C)cc1	< 2.5 nM
Cc1cc([C@@H](C(=O)N2C[C@H](O)C[C@H]2C(=O)N[C@@H](COCCOCCNc2ccc(-c3ccccc3O)nn2)c2ccc(-c3scnc3C)cc2)C(C)C)on1	> 30 nM
Cc1cc([C@@H](C(=O)N2C[C@H](O)C[C@H]2C(=O)N[C@H](COCCOCCNc2ccc(-c3ccccc3O)nn2)c2ccc(-c3scnc3C)cc2)C(C)C)on1	> 30 nM
Cc1cc([C@H](C(=O)N2C[C@H](O)C[C@H]2C(=O)N[C@H](COCCCCCc2cc(-c3ccccc3O)nnc2N)c2ccc(-c3scnc3C)cc2)C(C)C)on1	> 30 nM
Cc1ncsc1-c1ccc([C@H](C)NC(=O)[C@@H]2C[C@@H](O)CN2C(=O)[C@@H](c2cc(N3CCC(CN4CCC(O[C@H]5C[C@H](C#C[C@@H](C)n6cc(-c7cc(-c8ccccc8O)nnc7N)cn6)C5)CC4)CC3)no2)C(C)C)cc1	< 2.5 nM
Cc1cc([C@@H](C(=O)N2C[C@H](O)C[C@H]2C(=O)N[C@@H](C)c2ccc(-c3scnc3C)cc2)[C@H](C)COCCn2cc(-c3cc(-c4ccccc4O)nnc3N)cn2)on1	> 30 nM
Cc1ncsc1-c1cnc([C@H](C)NC(=O)[C@@H]2C[C@@H](O)CN2C(=O)[C@@H](c2cc(OCCN3CCC(O[C@H]4C[C@H](Oc5cc(N6C7CCC6CN(c6cc(-c8ccccc8O)nnc6N)C7)ccn5)C4)CC3)no2)C(C)C)cn1	< 2.5 nM
Cc1cc([C@@H](C(=O)N2C[C@H](O)C[C@H]2C(=O)N[C@@H](COCCCCCc2cc(-c3ccccc3O)nnc2N)c2ccc(-c3scnc3C)cc2)C(C)C)on1	> 30 nM
